What IC50 was measured for each of the following?
# target-entity: human (hACC2) (Homo sapiens, UniProt O00763)
# Sequence (O00763 whole entry): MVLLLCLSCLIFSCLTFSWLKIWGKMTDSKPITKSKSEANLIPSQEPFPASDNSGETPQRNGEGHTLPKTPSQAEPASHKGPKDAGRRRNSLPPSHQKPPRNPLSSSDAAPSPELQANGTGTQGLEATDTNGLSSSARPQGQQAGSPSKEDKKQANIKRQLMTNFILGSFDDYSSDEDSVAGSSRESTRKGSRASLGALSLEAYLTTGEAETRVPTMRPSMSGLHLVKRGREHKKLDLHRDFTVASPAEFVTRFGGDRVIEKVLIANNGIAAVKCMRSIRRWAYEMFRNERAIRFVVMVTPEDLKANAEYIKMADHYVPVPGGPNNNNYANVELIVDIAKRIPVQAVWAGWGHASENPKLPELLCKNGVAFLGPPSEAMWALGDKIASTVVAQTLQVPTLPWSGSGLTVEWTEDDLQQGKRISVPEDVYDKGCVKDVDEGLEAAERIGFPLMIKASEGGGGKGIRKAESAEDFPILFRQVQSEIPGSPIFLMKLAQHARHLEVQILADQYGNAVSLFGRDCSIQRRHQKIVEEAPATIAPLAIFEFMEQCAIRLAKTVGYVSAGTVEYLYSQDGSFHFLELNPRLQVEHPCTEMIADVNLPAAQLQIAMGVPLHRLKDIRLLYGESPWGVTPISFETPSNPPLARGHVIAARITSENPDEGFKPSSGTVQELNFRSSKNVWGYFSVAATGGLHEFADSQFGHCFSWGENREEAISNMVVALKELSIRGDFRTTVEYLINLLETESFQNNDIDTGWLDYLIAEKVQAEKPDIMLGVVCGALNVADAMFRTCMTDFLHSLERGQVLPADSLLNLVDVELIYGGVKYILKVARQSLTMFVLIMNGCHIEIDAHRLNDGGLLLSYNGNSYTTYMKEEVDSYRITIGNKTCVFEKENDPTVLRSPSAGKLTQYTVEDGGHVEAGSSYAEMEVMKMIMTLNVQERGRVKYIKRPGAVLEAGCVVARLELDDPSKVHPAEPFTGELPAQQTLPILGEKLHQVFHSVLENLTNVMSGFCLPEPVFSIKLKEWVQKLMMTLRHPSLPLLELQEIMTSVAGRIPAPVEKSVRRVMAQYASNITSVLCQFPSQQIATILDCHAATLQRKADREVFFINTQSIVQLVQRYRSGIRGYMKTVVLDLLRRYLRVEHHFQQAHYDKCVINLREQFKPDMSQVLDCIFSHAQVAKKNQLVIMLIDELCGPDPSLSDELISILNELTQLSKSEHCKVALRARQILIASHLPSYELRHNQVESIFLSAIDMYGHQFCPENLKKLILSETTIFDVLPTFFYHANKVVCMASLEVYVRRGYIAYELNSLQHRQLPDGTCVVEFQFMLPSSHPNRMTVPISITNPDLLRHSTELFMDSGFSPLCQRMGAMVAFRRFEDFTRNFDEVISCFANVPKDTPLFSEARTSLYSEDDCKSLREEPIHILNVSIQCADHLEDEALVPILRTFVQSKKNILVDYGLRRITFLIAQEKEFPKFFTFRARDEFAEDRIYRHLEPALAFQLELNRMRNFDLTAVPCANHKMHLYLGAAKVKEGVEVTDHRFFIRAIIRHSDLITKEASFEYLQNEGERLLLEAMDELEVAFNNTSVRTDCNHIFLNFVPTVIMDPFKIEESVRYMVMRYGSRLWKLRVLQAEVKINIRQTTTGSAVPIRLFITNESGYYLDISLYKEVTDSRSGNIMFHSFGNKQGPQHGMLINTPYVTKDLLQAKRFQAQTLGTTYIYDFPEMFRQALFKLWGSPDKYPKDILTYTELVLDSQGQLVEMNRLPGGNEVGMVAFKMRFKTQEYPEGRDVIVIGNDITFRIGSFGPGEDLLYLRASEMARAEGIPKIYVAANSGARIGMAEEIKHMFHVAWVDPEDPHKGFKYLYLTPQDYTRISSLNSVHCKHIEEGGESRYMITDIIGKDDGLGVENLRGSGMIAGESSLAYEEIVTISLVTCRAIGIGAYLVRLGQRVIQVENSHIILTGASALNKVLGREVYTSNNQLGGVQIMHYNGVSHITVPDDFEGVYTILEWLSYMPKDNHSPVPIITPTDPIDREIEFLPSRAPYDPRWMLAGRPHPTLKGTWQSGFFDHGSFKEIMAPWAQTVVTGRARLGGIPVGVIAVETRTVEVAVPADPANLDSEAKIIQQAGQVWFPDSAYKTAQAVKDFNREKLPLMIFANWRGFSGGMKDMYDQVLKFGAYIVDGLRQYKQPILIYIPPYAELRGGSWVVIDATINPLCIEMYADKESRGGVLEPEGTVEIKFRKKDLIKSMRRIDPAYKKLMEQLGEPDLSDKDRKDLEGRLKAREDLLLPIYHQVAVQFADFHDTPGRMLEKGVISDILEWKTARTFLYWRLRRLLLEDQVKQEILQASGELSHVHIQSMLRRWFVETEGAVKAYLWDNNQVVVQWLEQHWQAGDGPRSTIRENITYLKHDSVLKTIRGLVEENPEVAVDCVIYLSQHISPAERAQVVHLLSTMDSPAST
# protocol-details: In vitro ACC inhibition assay (ADP-Glo), hACC2
# Assay type: biochemical
# condition-notes: Table 2b, additional results, 5 nM ACC2, 20 μM ATP, 20 μM acetyl-CoA

Answered examples (2):
molecule	IC50
COc1ccc(F)cc1[C@H](Cn1c(=O)n(C(C)(C)C(N)=O)c(=O)c2c(C)c(-n3nccn3)sc21)OCCC(=O)C(F)(F)F	10 to 40 nM
COc1ccc(F)cc1[C@H](Cn1c(=O)n(C(C)(C)C(=O)O)c(=O)c2c(C)c(-n3nccn3)sc21)OC1CCC(=O)CC1	1 to 5 nM

Record IC50 for all entries; do not skip any.
1. CCc1ccc(F)cc1[C@@H](O)Cn1c(=O)n(C(C)(C)C(N)=O)c(=O)c2c(C)c(-n3nccn3)sc21
2. COc1ccc(F)cc1[C@H](Cn1c(=O)n(C(C)(C)C(=O)NC(C)C)c(=O)c2c(C)c(-n3nccn3)sc21)OC[C@@H](C)O
3. COc1ccc(F)cc1[C@H](Cn1c(=O)n([C@H](C)C(=O)NC(C)C)c(=O)c2c(C)c(-n3nccn3)sc21)OCCC#N
4. COc1ccc(F)cc1[C@H](Cn1c(=O)n(C(C)(C)C(=O)NC(C)C)c(=O)c2c(C)c(-n3nccn3)sc21)OC1CCC(=O)CC1
5. COc1ccc(F)cc1[C@H](Cn1c(=O)n([C@@H](C)C(=O)N(C)C(C)C)c(=O)c2c(C)c(-n3nccn3)sc21)O[C@H]1CC[C@@H](O)CC1
6. COc1ccc(F)cc1[C@H](Cn1c(=O)n(C(C)(C)C(=O)NC(C)C)c(=O)c2c(C)c(-n3nccn3)sc21)OC[C@H](C)C(=O)O
7. [2H]C([2H])([2H])Oc1ccccc1[C@H](Cn1c(=O)n(C(C)(C)C(N)=O)c(=O)c2c(C)c(-n3nccn3)sc21)OC1CCOCC1
8. Cc1c(-n2nccn2)sc2c1c(=O)n(C(C)(C)C(=O)NC(C)C)c(=O)n2C[C@H](OC(C)C)c1cc(F)ccc1OCC1COC1

1. 10 to 40 nM
2. 10 to 40 nM
3. 1 to 5 nM
4. 5 to 10 nM
5. 5 to 10 nM
6. > 40 nM
7. 5 to 10 nM
8. 10 to 40 nM

Record IC50 for all entries; do not skip any.
1. CCNC(=O)C(C)(C)n1c(=O)c2c(C)c(-n3nccn3)sc2n(C[C@H](OC(C)C)c2cc(F)ccc2OC)c1=O
2. COCCO[C@@H](Cn1c(=O)n(C(C)C(=O)N2CCCC2)c(=O)c2c(C)c(-n3nccn3)sc21)c1cc(F)ccc1OC (stereo partly drawn)

["5 to 10 nM", "10 to 40 nM"]

---

What IC50 was measured for each of the following?
# target-entity: human (hACC2) (Homo sapiens)
# protocol-details: In vitro ACC inhibition assay (ADP-Glo), hACC2
# Format: biochemical
# condition-notes: Table 2a, 5 nM ACC2, 20 μM ATP, 20 μM acetyl-CoA
# Description: The detailed procedure is as follows. […] 10 μL ADP glo reagent was added. […] 20 μL kinase detection reagent was added.

compound	measurement-kind	value-observed
COc1ccc(F)cc1[C@H](Cn1c(=O)n([C@@H](C)C(=O)N2CCCC2)c(=O)c2c(C)c(-n3nccn3)sc21)OCC(C)(C)O	IC50	10 to 40 nM
COc1ccc(F)cc1[C@H](Cn1c(=O)n(C(C)(C)C(=O)N2CC=CC2)c(=O)c2c(C)c(-n3nccn3)sc21)OCC(C)O (stereo partly drawn)	IC50	1 to 5 nM
CCNC(=O)C(C)(C)n1c(=O)c2c(C)c(-n3nccn3)sc2n(C[C@H](OCC(C)C)c2cc(F)ccc2OC)c1=O	IC50	5 to 10 nM
COc1ccc(F)cc1[C@H](Cn1c(=O)n(C(C)(C)C(=O)O)c(=O)c2c(C)c(-n3nccn3)sc21)OCC(C)(C)C#N	IC50	1 to 5 nM
C=CCN(C)C(=O)C(C)(C)n1c(=O)c2c(C)c(-n3nccn3)sc2n(C[C@H](OC2CCOCC2)c2cc(F)ccc2OC)c1=O	IC50	1 to 5 nM

Now consider a different compound.
What IC50 value was documented for this compound, "Cc1c(-n2nccn2)sc2c1c(=O)n(C(C)(C)C(=O)N1CCCC1)c(=O)n2C[C@H](OC1CCOCC1)c1cc(F)ccc1OCC1COC1" ?
5 to 10 nM

---

# Test system: C. krusei
# protocol-details: Antifungal Activity Assay (broth microtiter MIC), C. krusei
# Type: cell-based, Candida krusei
# condition-notes: Pichia kudriavzevii, ATCC6258, 48 h, Table 3b (additional results); ATCC 6258; 3 replicates; MIC recorded at 48 h; read-out: MIC, C. krusei ATCC 6258
measurement-kind: MIC

molecule	target-entity	value-observed
COc1ccc(F)cc1[C@H](Cn1c(=O)n(C(C)(C)C(=O)NC(C)C)c(=O)c2c(C)c(-n3nccn3)sc21)OCCC(C)=O [Compound I-104]	C. krusei	0.25 to 1 µg/mL
COc1ccc(F)cc1[C@H](Cn1c(=O)n(C(C)(C)C(=O)NO)c(=O)c2c(C)c(-n3nccn3)sc21)OCCCO [Compound I-161]	C. krusei	1.01 to 2 µg/mL

Now consider a different molecule.
What MIC value was documented for this molecule, COc1ccc(F)cc1[C@H](Cn1c(=O)n([C@H](C)C(=O)N2CCCC2)c(=O)c2c(C)c(-n3nccn3)sc21)OCCC#N [Compound I-187] ?
2.01 to 4 µg/mL

---

What pIC50 was measured for each of the following?
# target-entity: fungal (fACC2) (UniProt Q00955)
# Sequence (Q00955 whole entry): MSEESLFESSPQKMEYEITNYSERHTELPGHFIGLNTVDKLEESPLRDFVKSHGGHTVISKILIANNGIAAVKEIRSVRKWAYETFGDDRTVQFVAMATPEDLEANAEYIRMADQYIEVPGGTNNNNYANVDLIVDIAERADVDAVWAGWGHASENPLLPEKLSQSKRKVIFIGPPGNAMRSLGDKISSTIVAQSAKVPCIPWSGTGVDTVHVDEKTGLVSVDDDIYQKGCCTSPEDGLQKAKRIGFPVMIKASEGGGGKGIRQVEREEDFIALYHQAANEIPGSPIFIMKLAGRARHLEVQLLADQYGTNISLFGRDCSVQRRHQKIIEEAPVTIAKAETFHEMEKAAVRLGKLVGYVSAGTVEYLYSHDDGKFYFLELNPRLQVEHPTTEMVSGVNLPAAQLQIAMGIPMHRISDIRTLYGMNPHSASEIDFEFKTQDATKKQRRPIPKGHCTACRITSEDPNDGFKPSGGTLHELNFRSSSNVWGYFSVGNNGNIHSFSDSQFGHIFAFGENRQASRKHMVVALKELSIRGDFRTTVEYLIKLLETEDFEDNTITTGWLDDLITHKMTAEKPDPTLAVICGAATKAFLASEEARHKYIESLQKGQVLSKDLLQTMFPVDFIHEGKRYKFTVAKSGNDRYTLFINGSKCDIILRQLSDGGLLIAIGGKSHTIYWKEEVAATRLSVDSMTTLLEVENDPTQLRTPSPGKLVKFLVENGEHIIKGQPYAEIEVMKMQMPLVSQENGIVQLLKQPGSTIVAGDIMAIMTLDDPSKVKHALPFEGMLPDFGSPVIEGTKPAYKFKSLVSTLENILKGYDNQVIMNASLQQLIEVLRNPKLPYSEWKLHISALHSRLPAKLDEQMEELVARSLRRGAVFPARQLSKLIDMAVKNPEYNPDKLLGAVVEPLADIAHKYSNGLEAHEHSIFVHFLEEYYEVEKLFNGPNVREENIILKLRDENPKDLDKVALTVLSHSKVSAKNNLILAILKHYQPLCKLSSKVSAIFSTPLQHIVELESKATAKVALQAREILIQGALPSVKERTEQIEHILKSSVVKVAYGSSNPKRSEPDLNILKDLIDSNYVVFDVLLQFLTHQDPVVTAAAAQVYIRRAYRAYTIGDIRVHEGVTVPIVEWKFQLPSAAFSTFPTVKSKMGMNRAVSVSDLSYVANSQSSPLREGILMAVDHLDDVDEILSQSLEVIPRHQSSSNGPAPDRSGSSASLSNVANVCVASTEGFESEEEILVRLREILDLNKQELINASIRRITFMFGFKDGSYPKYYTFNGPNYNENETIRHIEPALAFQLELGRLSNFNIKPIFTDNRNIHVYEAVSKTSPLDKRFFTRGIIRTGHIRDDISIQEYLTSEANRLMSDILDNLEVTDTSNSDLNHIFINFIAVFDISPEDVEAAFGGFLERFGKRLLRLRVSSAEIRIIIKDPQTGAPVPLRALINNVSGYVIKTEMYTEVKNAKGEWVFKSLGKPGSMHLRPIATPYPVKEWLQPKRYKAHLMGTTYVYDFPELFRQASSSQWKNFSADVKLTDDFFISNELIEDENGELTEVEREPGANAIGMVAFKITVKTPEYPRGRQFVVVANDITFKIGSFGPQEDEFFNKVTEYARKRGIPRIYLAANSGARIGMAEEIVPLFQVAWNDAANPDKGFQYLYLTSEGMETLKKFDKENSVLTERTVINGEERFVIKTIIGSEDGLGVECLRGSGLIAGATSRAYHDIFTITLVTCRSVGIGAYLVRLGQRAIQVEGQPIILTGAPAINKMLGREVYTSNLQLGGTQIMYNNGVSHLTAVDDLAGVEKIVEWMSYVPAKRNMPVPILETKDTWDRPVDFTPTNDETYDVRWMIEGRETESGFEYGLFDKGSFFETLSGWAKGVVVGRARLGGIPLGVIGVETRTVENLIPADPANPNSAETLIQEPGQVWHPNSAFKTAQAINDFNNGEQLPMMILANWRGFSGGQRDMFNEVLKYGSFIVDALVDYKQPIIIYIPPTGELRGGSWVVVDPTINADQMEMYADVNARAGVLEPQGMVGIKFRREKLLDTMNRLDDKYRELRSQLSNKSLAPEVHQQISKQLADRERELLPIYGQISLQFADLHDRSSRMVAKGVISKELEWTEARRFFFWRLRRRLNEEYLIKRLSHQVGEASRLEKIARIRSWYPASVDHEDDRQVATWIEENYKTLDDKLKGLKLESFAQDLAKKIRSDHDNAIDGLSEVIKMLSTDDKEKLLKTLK
# condition-notes: read-out: fACC2 (in vitro ACC2 Inhibition Assay, IC50); Table 2a; ADP-Glo, 5 nM ACC2, 20 μM ATP, 20 μM acetyl-CoA
pIC50: −log10 of the molar value.

compound	value-observed
COc1ccc(F)cc1[C@H](Cn1c(=O)n(C(C)(C)C(=O)NC(C)C)c(=O)c2c(C)c(-n3nccn3)sc21)OCC(C)=O	9.00 to 9.40
C=CCNC(=O)C(C)(C)n1c(=O)c2c(C)c(-n3nccn3)sc2n(C[C@H](OC2CCOCC2)c2cc(F)ccc2OC)c1=O	8.30 to 9.00
COc1ccc(F)cc1[C@H](Cn1c(=O)n(C(C)(C)C(=O)NO)c(=O)c2c(C)c(-n3nccn3)sc21)OCCCO	9.00 to 9.40
COc1ccc(F)cc1[C@H](Cn1c(=O)n(C(C)(C)C(=O)NC(C)C)c(=O)c2c(C)c(-n3nccn3)sc21)OCCC(C)(C)O	8.30 to 9.00
COCCCO[C@@H](Cn1c(=O)n(C(C)C(=O)NC(C)C)c(=O)c2c(C)c(-n3nccn3)sc21)c1cc(F)ccc1OC (stereo partly shown)	9.00 to 9.40

Record pIC50 for all entries; do not skip any.
1. COc1ccc(F)cc1[C@H](Cn1c(=O)n(C(C)(C)C(=O)O)c(=O)c2c(C)c(-n3nccn3)sc21)OCC(C)(C)C#N
2. COc1ccc(F)cc1[C@H](Cn1c(=O)n(C(C)(C)C(=O)N2CCCC2)c(=O)c2c(C)c(-n3nccn3)sc21)OCC(C)=O
3. COc1ccc(F)cc1[C@H](Cn1c(=O)n(C(C)(C)C(=O)O)c(=O)c2c(C)c(-n3nccn3)sc21)O[C@H]1CC[C@H](C#N)CC1
4. COc1ccc(F)cc1[C@H](Cn1c(=O)n(C(C)(C)C(=O)NC(C)C)c(=O)c2c(C)c(-n3nccn3)sc21)OCCC(=O)O
5. COc1ccc(F)cc1[C@H](Cn1c(=O)n(C(C)(C)C(=O)N2CC=CC2)c(=O)c2c(C)c(-n3nccn3)sc21)OCC(C)O (stereo partly shown)

8.30 to 9.00
8.30 to 9.00
8.30 to 9.00
8.30 to 9.00
8.30 to 9.00

---

What MIC was measured for each of the following?
# Test system: C. krusei
# protocol-details: Antifungal Activity Assay (broth microtiter MIC), C. krusei
# Type: cell-based, Candida krusei
# condition-notes: Pichia kudriavzevii, ATCC6258, 48 h, Table 3b (additional results); ATCC 6258; 3 replicates; MIC recorded at 48 h; read-out: MIC, C. krusei ATCC 6258

Answered examples (3):
compound	MIC
CCNC(=O)C(C)(C)n1c(=O)c2c(C)c(-n3nccn3)sc2n(C[C@H](O)c2cc(F)ccc2OC)c1=O [Compound I-255]	2.01 to 4 µg/mL
COCCO[C@@H](Cn1c(=O)n(CC(=O)N2CCCC2)c(=O)c2c(C)c(-n3nccn3)sc21)c1cc(F)ccc1OC [Compound I-79]	> 4.01 µg/mL
COc1ccc(F)cc1[C@H](Cn1c(=O)n(C(C)(C)C(=O)N2CC=CC2)c(=O)c2c(C)c(-n3nccn3)sc21)OCC(C)=O [Compound I-190]	> 4.01 µg/mL

Record MIC for all entries; do not skip any.
1. COc1ccc(F)cc1[C@H](Cn1c(=O)n(C(C)(C)C(=O)NC2CCCCC2)c(=O)c2c(C)c(-n3nccn3)sc21)OCCC(C)=O [Compound I-106]
2. COCCCO[C@@H](Cn1c(=O)n(C(C)(C)C(=O)N2CCCC2)c(=O)c2c(C)c(-n3nccn3)sc21)c1cc(F)ccc1OC [Compound I-68]

1. 0.25 to 1 µg/mL
2. 2.01 to 4 µg/mL

Record MIC for all entries; do not skip any.
1. CCNC(=O)C(C)(C)n1c(=O)c2c(C)c(-n3nccn3)sc2n(C[C@H](OCC(C)C)c2cc(F)ccc2OC)c1=O [Compound I-9]
2. CCNC(=O)C(C)(C)n1c(=O)c2c(C)c(-n3nccn3)sc2n(C[C@@H](OC(C)=O)c2cc(F)ccc2OC)c1=O [Compound I-260]

["0.25 to 1 µg/mL", "1.01 to 2 µg/mL"]
